- System: Tobacco mosaic virus
- TEST_NAME: Antiviral activity against Tobacco mosaic virus (TMV) inoculated in 5-6 growth stage leaf assessed as inhibition effect at 100 ug/mL at 25 degC after 72 hr by half-leaf method
- Type: functional
Listed here: items and their measured inhibition at 100 µg/mL.

Below are worked cases with known answers.
{"QUERY_SMILES": "COc1ccc2c3c(c4cc(OC)c(OC)cc4c2c1)CN1CCC[C@H]1[C@H]3N", "OBSERVED": "45%"}
{"QUERY_SMILES": "CCCCN[C@@H]1c2c(c3cc(OC)c(OC)cc3c3cc(OC)ccc23)CN2CCC[C@H]12", "OBSERVED": "24.3%"}

Pending molecule:
With Tobacco mosaic virus as the test system, `CCCCN[C@@H]1c2c(c3cc(OC)c(OC)cc3c3cc(OC)ccc23)CN2CCC[C@@H]12` showed inhibition at 100 µg/mL of 41.2%

###

- System: Tobacco mosaic virus
- TEST_NAME: Antiviral activity against Tobacco mosaic virus (TMV) inoculated in 5-6 growth stage leaf assessed as inhibition effect at 100 ug/mL at 25 degC after 72 hr by half-leaf method
- Format: functional
Reported inhibition at 100 µg/mL values for a set of molecules
Write down the numeric answer in % and omit the unit.

{"MOLECULE": "COc1ccc2c3c(c4cc(OC)c(OC)cc4c2c1)CN1CCC[C@H]1[C@H]3NC(C)=O", "ASSAY_TARGET": "Tobacco mosaic virus", "MEASUREMENT_UNIT": "%", "OBSERVED": 7.4}
{"MOLECULE": "COc1ccc2c3c(c4cc(OC)c(OC)cc4c2c1)[C@H](NC(=O)C(C)(C)C)[C@@H]1CCCN1C3", "ASSAY_TARGET": "Tobacco mosaic virus", "MEASUREMENT_UNIT": "%", "OBSERVED": 28.7}

inhibition at 100 µg/mL recorded for this molecule, `COc1cc2c3c(c4cc(OC)c(OC)cc4c2cc1OC)[C@H](N)[C@@H]1CCCN1C3` , is 0

Value of inhibition at 100 µg/mL reported for the molecule NC(=O)c1ncn([C@@H]2O[C@H](CO)[C@@H](O)[C@H]2O)n1 [RIBAVIRIN] is 19.6

For `CCCCN[C@H]1c2c(c3cc(OC)c(OC)cc3c3cc(OC)ccc23)CN2C(=O)CC[C@H]12` the molecule record lists inhibition at 100 µg/mL as 20.4

Looking up `CCCCN[C@@H]1c2c(c3cc(OC)c(OC)cc3c3cc(OC)ccc23)CN2C(=O)CC[C@@H]12` , I found its inhibition at 100 µg/mL recorded as 20

# inhibition at 100 µg/mL of CNCC(=O)N[C@@H](CO)C(=O)N[C@H]1[C@H](O)[C@@H](O)[C@H](n2ccc(N)nc2=O)O[C@@H]1C(N)=O [NINGNANMYCIN] = 23.9

Value of inhibition at 100 µg/mL reported for the molecule COc1cc2c3c(c4cc(OC)c(OC)cc4c2cc1OC)CN1CCCC1C3 (racemic) [(+/-)-TYLOPHORINE] is 27.6

Lab note: `CCCCN[C@H]1c2c(c3cc(OC)c(OC)cc3c3cc(OC)ccc23)CN2C(=O)CC[C@@H]12` gave inhibition at 100 µg/mL of 30

inhibition at 100 µg/mL measured on `COc1ccc2c3c(c4cc(OC)c(OC)cc4c2c1)[C@H](NC(C)=O)[C@@H]1CCCN1C3` = 55

Item: `COc1ccc2c3c(c4cc(OC)c(OC)cc4c2c1)CN1CCC[C@H]1[C@H]3NC(=O)C(C)(C)C` | inhibition at 100 µg/mL: 30

Input `CCCCN[C@H]1c2c(c3cc(OC)c(OC)cc3c3cc(OC)ccc23)CN2CCC[C@H]12` . Output inhibition at 100 µg/mL: 19.9

inhibition at 100 µg/mL recorded for this molecule, `CCCCN[C@H]1c2c(c3cc(OC)c(OC)cc3c3cc(OC)ccc23)CN2CCC[C@@H]12` , is 28.4

molecule `COc1ccc2c3c(c4cc(OC)c(OC)cc4c2c1)[C@H](N)[C@@H]1CCCN1C3` , inhibition at 100 µg/mL observed: 32.5

Entry `COc1cc2c3c(c4cc(OC)c(OC)cc4c2cc1OC)[C@H](NC(=O)C(C)(C)C)[C@@H]1CCCN1C3` ; inhibition at 100 µg/mL = 23.1

# inhibition at 100 µg/mL of `CCCCN[C@@H]1c2c(c3cc(OC)c(OC)cc3c3cc(OC)ccc23)CN2C(=O)CC[C@H]12` = 17.5

Form field inhibition at 100 µg/mL, entry `COc1cc2c3c(c4cc(OC)c(OC)cc4c2cc1OC)[C@H](NC(C)=O)[C@@H]1CCCN1C3` : 21.1

The reported numbers originate from ChEMBL document CHEMBL3045658.
